Data provenance: ChEMBL document CHEMBL1201862

Entries and their measured GI50 follow.
Tested on: RXF 393
protocol-notes: NCI tumour cell line growth inhibition, 48 h
Calls of active or inactive are those of the source. No stated cut-off is given here; in the data, active = GI50 up to about 1.1 µM and inactive = higher.
observation-type: GI50

INSERT INTO assay_data (compound, result) VALUES
  ('O=C(O)C1C2C=CC(C2)C1c1ccccc1 (stereo unspecified)', '> 100 µM (inactive)'),
  ('CC(C)(C)OC(=O)NCCCCC(NC(=O)c1ccccc1)C(N)=O (stereo unspecified)', '> 100 µM (inactive)'),
  ('O=c1c(O)c(-c2ccccc2)oc2c(CP(=O)(O)O)cccc12', '> 100 µM (inactive)'),
  ('CS(=O)(=O)OCCCCOS(=O)(=O)CF', '> 100 µM (inactive)'),
  ('CSC1CC2C(CC1(C)SC)C2(C)C (stereo unspecified)', '56.5 µM (inactive)'),
  ('Nc1cccc(C2CCCc3c2[nH]c2ccccc32)c1 (stereo unspecified)', '15.3 µM (inactive)'),
  ('COc1ccc(Nc2ccc3ccccc3c2-c2c(O)ccc3ccccc23)cc1', '20.2 µM (inactive)'),
  ('COC(C)(C)CCc1[nH]c2ccccc2c1CC(=O)NCCc1cncn1C', '> 100 µM (inactive)'),
  ('O=c1c(O)c(-c2ccc(O)c(O)c2)oc2cc(O)cc(O)c12', '55.7 µM (inactive)'),
  ('COc1cc2c(cc1OC)C(=O)/C(=C/c1ccc(Cl)cc1)CC2', '> 10 µM (inactive)'),
  ('O=C(c1ccccc1)[C@H]1Nc2ccc(Cl)cc2C2c3ccccc3CC21 (stereo partly specified)', '10.5 µM (inactive)');
